Data provenance is patent US11261175B2.

Can you tell me pEC50 for the items I'm about to list?
- System: HCV genotype 1b replicon with NS5A L31V mutation
- MEASUREMENT DESCRIPTION: Transiently transfected assay of genotype 1b resistance mutant RNA L31V
- Assay type: cell-based
- CONDITION CONTEXT: Hepatitis C virus, Huh-7.5.1, 72 h, read-out: HCV Mutation L31V
pEC50: −log10 of the molar value.

// pEC50 value for `CCCCC1(CCCC)c2cc(NC(=O)[C@@H]3CCCN3C(=O)[C@H](NC(=O)OC)c3ccccc3)ccc2-c2ccc(-c3cnc([C@@H]4C[C@H](COC)CN4C(=O)[C@@H](NC(=O)OC)C(C)C)[nH]3)cc21` : 11.00 to 12.00

Lab book: pEC50 of `CCC1(CC)c2cc(NC(=O)[C@@H]3CCCN3C(=O)[C@H](NC(=O)OC)c3ccccc3)ccc2-c2ccc(NC(=O)[C@@H]3CCCN3C(=O)[C@H](NC(=O)OC)c3ccccc3)cc21` noted as 9.00 to 10.00

pEC50 in this record for `CCCC1(CCC)c2cc(NC(=O)[C@@H]3CCCN3C(=O)[C@H](NC(=O)OC)c3ccccc3)ccc2-c2ccc(-c3cnc([C@@H]4CCCN4C(=O)[C@@H](NC(=O)OC)C(C)C)[nH]3)cc21` : 10.00 to 11.00

Consider `CCCCC1(CCCC)c2cc(NC(=O)[C@@H]3CCCN3C(=O)[C@H](NC(=O)OC)c3ccccc3)ccc2-c2ccc(NC(=O)[C@@H]3CCCN3C(=O)[C@H](NC(=O)OC)c3ccccc3)cc21` . Its measured pEC50 is 11.00 to 12.00

`CCCCC1(CCCC)c2cc(NC(=O)[C@@H]3C[C@H](O)CN3C(=O)[C@H](NC(=O)OC)c3ccccc3)ccc2-c2ccc(NC(=O)[C@@H]3C[C@H](O)CN3C(=O)[C@H](NC(=O)OC)c3ccccc3)cc21` has a reported pEC50 of 11.00 to 12.00

* * *

- System: HCV genotype 1b replicon with NS5A L31V mutation
- MEASUREMENT DESCRIPTION: Transiently transfected assay of genotype 1b resistance mutant RNA L31V
- Format: cell-based
- CONDITION CONTEXT: Hepatitis C virus, Huh-7.5.1, 72 h, read-out: HCV Mutation L31V
OUTCOME MEASURE: EC50

The reported EC50 of the compound `CCCCC1(CCCC)c2cc(NC(=O)[C@@H]3CC4(CN3C(=O)[C@H](NC(=O)OC)c3ccccc3)OCCO4)ccc2-c2ccc(-c3cnc([C@@H]4CCCN4C(=O)[C@@H](NC(=O)OC)C(C)C)[nH]3)cc21` was 0.001 to 0.01 nM

Looking up `CCCCC1(CCCC)c2cc(NC(=O)[C@@H]3CC4(CN3C(=O)[C@H](NC(=O)OC)c3ccccc3)OCCO4)ccc2-c2ccc(NC(=O)[C@@H]3CC4(CN3C(=O)[C@H](NC(=O)OC)c3ccccc3)OCCO4)cc21` , I see its EC50 listed as 0.001 to 0.01 nM

get_value(item= `CCCCC1(CCCC)c2cc(NC(=O)[C@@H]3C[C@H]4CCC[C@H]4N3C(=O)[C@H](NC(=O)OC)c3ccccc3)ccc2-c2ccc(NC(=O)[C@@H]3C[C@H]4CCC[C@H]4N3C(=O)[C@H](NC(=O)OC)c3ccccc3)cc21` , readout=EC50) returns 0.001 to 0.01 nM

Just so you know, measured EC50 for `CCCCC1(CCCC)c2cc(NC(=O)[C@@H]3C[C@@H](O)CN3C(=O)[C@H](NC(=O)OC)c3ccccc3)ccc2-c2ccc(-c3cnc([C@@H]4CCCN4C(=O)[C@@H](NC(=O)OC)C(C)C)[nH]3)cc21` came out at 0.1 to 1 nM

Note to self: EC50 recorded for `CCCCC1(CCCC)c2cc(NC(=O)[C@@H]3C[C@H](COC)CN3C(=O)[C@H](NC(=O)OC)c3ccccc3)ccc2-c2ccc(-c3cnc([C@@H]4C[C@H](COC)CN4C(=O)[C@@H](NC(=O)OC)C(C)C)[nH]3)cc21` was 0.001 to 0.01 nM

get_value(item= `CCCCC1(CCCC)c2cc(NC(=O)[C@@H]3CCCN3C(=O)[C@H](NC(=O)OC)c3ccccc3)ccc2-c2ccc(NC(=O)[C@@H]3CC(=O)CN3C(=O)[C@H](NC(=O)OC)c3ccccc3)cc21` , readout=EC50) returns 0.001 to 0.01 nM

The recorded EC50 for `CCCCCC1(CCCCC)c2cc(NC(=O)[C@@H]3CC(=O)CN3C(=O)[C@H](NC(=O)OC)c3ccccc3)ccc2-c2ccc(NC(=O)[C@@H]3CC(=O)CN3C(=O)[C@H](NC(=O)OC)c3ccccc3)cc21` is 0.001 to 0.01 nM

Looking up `CCCCCC1(CCCCC)c2cc(NC(=O)[C@@H]3CCCN3C(=O)[C@H](NC(=O)OC)c3ccccc3)ccc2-c2ccc(NC(=O)[C@@H]3CCCN3C(=O)[C@H](NC(=O)OC)c3ccccc3)cc21` , I see its EC50 listed as 0.001 to 0.01 nM

According to the records, this compound `CCCCC1(CCCC)c2cc(NC(=O)[C@@H]3CCCN3C(=O)[C@H](NC(=O)OC)c3ccccc3)ccc2-c2ccc(-c3cnc([C@@H]4CCCN4C(=O)[C@@H](NC(=O)OC)C(C)C)[nH]3)cc21` displays EC50 of 0.01 to 0.1 nM

* * *

- System: HCV genotype 1b replicon with NS5A Y93H mutation
- MEASUREMENT DESCRIPTION: Transiently transfected assay of genotype 1b resistance mutant RNA Y93H
- Format: cell-based
- CONDITION CONTEXT: Hepatitis C virus, Huh-7.5.1, 72 h, read-out: HCV Mutation Y93H
OUTCOME MEASURE: EC50

Query `CCCCC1(CCCC)c2cc(NC(=O)[C@@H]3C[C@H](COC)CN3C(=O)[C@H](NC(=O)OC)c3ccccc3)ccc2-c2ccc(-c3cnc([C@@H]4C[C@H](COC)CN4C(=O)[C@@H](NC(=O)OC)C(C)C)[nH]3)cc21` on HCV genotype 1b replicon with NS5A Y93H mutation; EC50 returned: 0.01 to 0.1 nM

# value of EC50, HCV genotype 1b replicon with NS5A Y93H mutation, item `CCCCC1(CCCC)c2cc(NC(=O)[C@@H]3CC(F)(F)CN3C(=O)[C@H](NC(=O)OC)c3ccccc3)ccc2-c2ccc(NC(=O)[C@@H]3CC4(CC4)CN3C(=O)[C@H](NC(=O)OC)c3ccccc3)cc21` = 1 to 100 nM

# EC50 measured on HCV genotype 1b replicon with NS5A Y93H mutation for item `CCCCC1(CCCC)c2cc(NC(=O)[C@@H]3C[C@@H](OC)CN3C(=O)[C@H](NC(=O)OC)c3ccccc3)ccc2-c2ccc(NC(=O)[C@@H]3C[C@@H](OC)CN3C(=O)[C@H](NC(=O)OC)c3ccccc3)cc21` = 0.01 to 0.1 nM

For the molecule `CCCCCC1(CCCCC)c2cc(NC(=O)[C@@H]3CC(=O)CN3C(=O)[C@H](NC(=O)OC)c3ccccc3)ccc2-c2ccc(NC(=O)[C@@H]3CC(=O)CN3C(=O)[C@H](NC(=O)OC)c3ccccc3)cc21` , the measured EC50 on HCV genotype 1b replicon with NS5A Y93H mutation was 0.1 to 1 nM

Form field, EC50 with HCV genotype 1b replicon with NS5A Y93H mutation, item `CCCCC1(CCCC)c2cc(NC(=O)[C@@H]3C[C@@H](OCCOC)CN3C(=O)[C@H](NC(=O)OC)c3ccccc3)ccc2-c2ccc(NC(=O)[C@@H]3C[C@@H](OCCOC)CN3C(=O)[C@H](NC(=O)OC)c3ccccc3)cc21` : 0.01 to 0.1 nM

HCV genotype 1b replicon with NS5A Y93H mutation assay, molecule `CCCCC1(CCCC)c2cc(NC(=O)[C@@H]3C[C@@H](O)CN3C(=O)[C@H](NC(=O)OC)c3ccccc3)ccc2-c2ccc(NC(=O)[C@@H]3C[C@H](COC)CN3C(=O)[C@H](NC(=O)OC)c3ccccc3)cc21` , recorded EC50 = 0.001 to 0.01 nM

Bench note, HCV genotype 1b replicon with NS5A Y93H mutation: `CCCCC1(CCCC)c2cc(NC(=O)[C@@H]3CCCN3C(=O)[C@H](NC(=O)OC)c3ccccc3)ccc2-c2ccc(-c3cnc([C@@H]4CCCN4C(=O)[C@@H](NC(=O)OC)C(C)C)[nH]3)cc21` , EC50 reads 0.01 to 0.1 nM

Tested on HCV genotype 1b replicon with NS5A Y93H mutation, the item `CCCCC1(CCCC)c2cc(NC(=O)[C@@H]3CCCN3C(=O)[C@H](NC(=O)OC)c3ccccc3)ccc2-c2ccc(NC(=O)[C@@H]3CCCN3C(=O)[C@H](NC(=O)OC)c3ccccc3)cc21` showed EC50 equal to 0.1 to 1 nM

Tested system HCV genotype 1b replicon with NS5A Y93H mutation; EC50 recorded for `CCCCC1(CCCC)c2cc(NC(=O)[C@@H]3CC4(CC4)CN3C(=O)[C@H](NC(=O)OC)c3ccccc3)ccc2-c2ccc(NC(=O)[C@@H]3C[C@H]4CCC[C@H]4N3C(=O)[C@H](NC(=O)OC)c3ccccc3)cc21` was 1 to 100 nM
